// reported pIC50 for each item listed
target: HDAC-1 (Homo sapiens, UniProt Q13547); construct: made in house; assay: Deacetylase fluorescence assay (HDAC-1); assay type: biochemical; conditions: read-out: HDAC-1 IC50
Sequence (Q13547 whole entry): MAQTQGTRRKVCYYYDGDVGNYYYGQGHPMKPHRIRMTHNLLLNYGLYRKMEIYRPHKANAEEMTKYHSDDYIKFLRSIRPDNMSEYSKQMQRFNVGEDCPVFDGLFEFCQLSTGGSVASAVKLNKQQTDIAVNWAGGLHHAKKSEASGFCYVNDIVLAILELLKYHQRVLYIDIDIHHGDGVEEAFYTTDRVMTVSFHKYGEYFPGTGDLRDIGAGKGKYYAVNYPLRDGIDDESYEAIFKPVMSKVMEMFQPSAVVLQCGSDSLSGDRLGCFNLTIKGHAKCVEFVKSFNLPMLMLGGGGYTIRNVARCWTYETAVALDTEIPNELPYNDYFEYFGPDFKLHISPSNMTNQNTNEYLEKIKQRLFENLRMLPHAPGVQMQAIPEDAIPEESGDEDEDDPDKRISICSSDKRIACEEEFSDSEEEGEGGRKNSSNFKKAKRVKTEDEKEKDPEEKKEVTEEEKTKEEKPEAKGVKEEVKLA
pIC50: −log10 of the molar value.

- compound: "CN(C)c1ccc(C(=O)N2CCc3cc(/C=C/C(=O)NO)ccc3C2)cc1 [Example 86]"
  pIC50: "6.00 to 7.00"
- compound: "Cc1nn2ccccc2c1CCN1CCc2ccc(/C=C/C(=O)NO)cc2CC1 [Example 71]"
  pIC50: "6.00 to 7.00"
- compound: "COc1cccc(S(=O)(=O)N2CCc3cc(/C=C/C(=O)NO)ccc3C2)c1 [Example 83]"
  pIC50: "6.00 to 7.00"

Request: Identify the reported pIC50 for the following entry. Cc1nn(C)c(C)c1CCN1CCc2ccc(/C=C/C(=O)NO)cc2C1 [Example 50]
Response: 6.00 to 7.00

Request: Identify the reported pIC50 for the following entry. O=C(/C=C/c1ccc2c(c1)CN(S(=O)(=O)c1ccccc1)C2)NO [Example 5]
Response: 6.00 to 7.00

Request: Identify the reported pIC50 for the following entry. Cc1cccc(S(=O)(=O)N2Cc3ccc(/C=C/C(=O)NO)cc3C2)c1 [Example 11]
Response: > 7.00

Request: Identify the reported pIC50 for the following entry. Cc1nn(C)c(C)c1CN1CCc2ccc(/C=C/C(=O)NO)cc2C1 [Example 52]
Response: 6.00 to 7.00

Request: Identify the reported pIC50 for the following entry. O=C(/C=C/c1ccc2c(c1)CN(C(=O)Cc1ccc(Cl)c(Cl)c1)CC2)NO [Example 67]
Response: > 7.00

Request: Identify the reported pIC50 for the following entry. COc1ccc(C(=O)N2CCc3cc(/C=C/C(=O)NO)ccc3C2)cc1 [Example 89]
Response: 6.00 to 7.00

Request: Identify the reported pIC50 for the following entry. COc1ccc(S(=O)(=O)N2Cc3ccc(/C=C/C(=O)NO)cc3C2)cc1 [Example 9]
Response: > 7.00

Request: Identify the reported pIC50 for the following entry. COc1ccc(C(=O)N2CCc3ccc(CCC(=O)NO)cc3C2)cc1 [Example 58]
Response: 6.00 to 7.00

Request: Identify the reported pIC50 for the following entry. CCCCS(=O)(=O)N1Cc2ccc(/C=C/C(=O)NO)cc2C1 [Example 19]
Response: 6.00 to 7.00

Request: Identify the reported pIC50 for the following entry. O=C(/C=C/c1ccc2c(c1)CN(C(=O)C1CCCCC1)C2)NO [Example 21]
Response: 6.00 to 7.00

Request: Identify the reported pIC50 for the following entry. O=C(/C=C/c1ccc2c(c1)CN(C(=O)c1cccs1)C2)NO [Example 18]
Response: > 7.00

Request: Identify the reported pIC50 for the following entry. Cc1ccccc1S(=O)(=O)N1Cc2ccc(/C=C/C(=O)NO)cc2C1 [Example 14]
Response: 6.00 to 7.00

Request: Identify the reported pIC50 for the following entry. Cc1[nH]c2ccccc2c1CCN1CCc2ccc(CCC(=O)NO)cc2C1 [Example 37]
Response: < 6.00

Request: Identify the reported pIC50 for the following entry. CN(C)c1ccc(C(=O)N2CCc3ccc(CCC(=O)NO)cc3C2)cc1 [Example 90]
Response: 6.00 to 7.00

This collection of values is drawn from patent US20100022514A1.
